Recorded measurements of activation, one per entry
biological target: Cellular tumor antigen p53 (Homo sapiens); assay: Primary qHTS for small molecule compounds that upregulate eGFP-tagged delta133p53alpha (in N-terminal) cells. (AID 2060322); details: NCI-H358 eGFP-delta133p53alpha fluorescence, 24 h; stronger effect = higher value;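 note: cells pre-induced with doxycycline then dosed without doxycycline; series mostly up to about 56 µM; 0% = DMSO vehicle and 100% = reference activator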
Inconclusive results are not listed.

{"columns": ["compound", "units.symbol", "activation"],
 "data": [
  ["CCC1(c2ccccc2)CCC(=O)NC1=O (stereo unspecified)", "%", 4.18],
  ["CC(=O)OC1(c2ccccc2)CCN(CCc2ccccc2)CC1", "%", -10.7],
  ["CCCCCCC(=O)CCCCCC/C=C/C[C@@H](O)[C@H](O)[C@@](N)(CO)C(=O)O", "%", 5.86],
  ["CC1NCCOC1c1ccccc1 (stereo unspecified)", "%", 9.6],
  ["O=[N+]([O-])c1ccc2nc(N3CCNCC3)ccc2c1", "%", -42.9],
  ["CC[N+]1(CC)CCC(OC(=O)C(O)(c2ccccc2)c2ccccc2)C1 (stereo unspecified)", "%", -15.3],
  ["Clc1ccccc1N1CCNCC1", "%", 28.8],
  ["Oc1ccc2c3c1O[C@H]1[C@H](N(CCCl)CCCl)CC[C@@]4(O)[C@@H](C2)N(CC2CC2)CC[C@]314", "%", -14.3],
  ["COc1cc(CC(C)N)cc2c1OCO2 (stereo unspecified)", "%", 6.21],
  ["CCC1=CC2CN3CCc4c([nH]c5ccccc45)[C@@](C(=O)OC)(C2)[C@@H]13", "%", 6.11],
  ["CCCCCCn1c(=O)c(C(=O)Nc2ccc(C(=O)OCCC)cc2)c(O)c2ccccc21", "%", 4.3],
  ["C=C(C)[C@@H]1[C@H]2OC(=O)[C@H]1[C@]1(O)C[C@H]3O[C@]34C(=O)O[C@H]2[C@]14C", "%", 4.33],
  ["CC(C)Oc1cccc(NC(=O)c2ccccc2C(F)(F)F)c1", "%", -17.6],
  ["C[N+]1(C)CCN(c2ccccc2)CC1", "%", -0.912],
  ["Clc1ccc(N2C[C@H]3CC[C@@H](C2)N3)nn1", "%", -0.333],
  ["C[C@@](O)(COc1ccc(C#N)cc1)C(=O)Nc1ccc(C#N)c(C(F)(F)F)c1", "%", -6.21],
  ["CCN(CC)CCOC(=O)C(C)(c1ccccc1)c1ccccc1", "%", -8.47],
  ["COC(=O)[C@@H](N)CCCN/C(N)=N/[N+](=O)[O-]", "%", -1.69],
  ["CN1C(=O)CN=C(c2ccccc2)c2cc(Cl)ccc21", "%", -7.34],
  ["C[C@@H]1[C@@H](CC(C[C@H]2O[C@@H]3O[C@]4(C)CC[C@@H]5[C@H](C)CC[C@@H]([C@H]2C)[C@@]35OO4)C[S+](=O)([O-])c2ccc(COC(=O)N(C)C)cc2)O[C@@H]2O[C@]3(C)CC[C@H]4[C@H](C)CC[C@@H]1[C@@]24OO3 (stereo partly specified)", "%", 8.23],
  ["CC(C)c1c(CN(C)C(C)Cc2ccccc2)n(C)n(-c2ccccc2)c1=O (stereo unspecified)", "%", -14.2],
  ["C[C@]12CCC(=O)C=C1CC[C@@H]1[C@@H]2CC[C@]2(C)C(=O)CC[C@@H]12", "%", 7.34],
  ["CCOC(=O)c1c(C(C#N)=CN)c2ccc(Cl)c(Cl)c2n1C", "%", -1.37],
  ["CO[C@H]1C[C@H](O[C@H]2CC[C@]3(C=O)[C@H]4CC[C@]5(C)[C@@H](C6=CC(=O)OC6)CC[C@]5(O)[C@@H]4CC[C@]3(O)C2)O[C@H](C)[C@H]1O", "%", -29.8],
  ["CNC(C)Cc1ccc2c(c1)OCO2 (stereo unspecified)", "%", 17.5],
  ["CN1CCc2cc(O)cc3c2[C@H]1Cc1ccc(O)c(O)c1-3", "%", -32.2],
  ["O=C1NCN(c2ccccc2)C12CCN(CCCOc1ccc(F)cc1)CC2", "%", 0.837],
  ["CN1C(=O)c2ccccc2NC(=O)[C@]12O[C@@H]2c1ccccc1", "%", -0.763],
  ["C/C=C1/CN2CC[C@]34C(=Nc5ccccc53)[C@@H]2C[C@@H]1[C@H]4C(=O)OC", "%", 17.9],
  ["CN1[C@H]2CC(O)C[C@H]1[C@H]1O[C@H]12 (stereo partly specified)", "%", -21],
  ["[Cl-].[Cl][Pt].[NH2-].[NH2-].c1ccncc1", "%", -12],
  ["C[C@]12CC[C@H](O)C[C@@H]1CC[C@@H]1[C@@H]2CC[C@]2(C)C(=O)CC[C@@H]12", "%", 6.33],
  ["C[C@@H]1CN(C2CCC(C#N)(c3ccc(F)cc3)CC2)CC[C@]1(C(=O)O)c1ccccc1 (stereo partly specified)", "%", 10.7],
  ["CCOC(=O)C(c1c(O)c2ccccc2oc1=O)c1c(O)c2ccccc2oc1=O", "%", -3.95],
  ["COc1cc(O)c2c(c1)/C=C/C[C@@H](O)[C@@H](O)C(=O)CCC[C@H](C)OC2=O", "%", -12.2],
  ["OCCOc1ccccc1", "%", -20.9],
  ["COc1ccc2c(c1)[C@]13CCCCC1C(C2)N(C)CC3 (stereo partly specified)", "%", 8.01],
  ["C=C(C)[C@H]1O[C@H]2CC[C@@]3(C)[C@@](O)(CC[C@H]4[C@@H]5OC(C)(C)[C@H]6C[C@@H]7C(=C)Cc8c(Cl)cc9[nH]c(c5c9c8[C@@]76O)[C@@]43C)[C@]23O[C@@H]3[C@H]1O", "%", -8.93],
  ["O=C1CN2CCOC2(c2ccccc2Cl)c2cc(Cl)ccc2N1 (stereo unspecified)", "%", 14.2],
  ["NC(CCCCCP(=O)(O)O)C(=O)O (stereo unspecified)", "%", -10.2],
  ["CN1CCC2=C(C1)c1ccccc1Cc1ccccc12", "%", 16.2]
]}

====

target: Cellular tumor antigen p53 (Homo sapiens) (UniProt P04637); experiment: Primary qHTS for small molecule compounds that upregulate eGFP-tagged delta133p53alpha (in N-terminal) cells. (AID 2060322); details: NCI-H358 eGFP-delta133p53alpha fluorescence, 24 h; stronger effect = higher value;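 note: cells pre-induced with doxycycline then dosed without doxycycline; series mostly up to about 56 µM; 0% = DMSO vehicle and 100% = reference activator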
Sequence (P04637 whole entry, looked up): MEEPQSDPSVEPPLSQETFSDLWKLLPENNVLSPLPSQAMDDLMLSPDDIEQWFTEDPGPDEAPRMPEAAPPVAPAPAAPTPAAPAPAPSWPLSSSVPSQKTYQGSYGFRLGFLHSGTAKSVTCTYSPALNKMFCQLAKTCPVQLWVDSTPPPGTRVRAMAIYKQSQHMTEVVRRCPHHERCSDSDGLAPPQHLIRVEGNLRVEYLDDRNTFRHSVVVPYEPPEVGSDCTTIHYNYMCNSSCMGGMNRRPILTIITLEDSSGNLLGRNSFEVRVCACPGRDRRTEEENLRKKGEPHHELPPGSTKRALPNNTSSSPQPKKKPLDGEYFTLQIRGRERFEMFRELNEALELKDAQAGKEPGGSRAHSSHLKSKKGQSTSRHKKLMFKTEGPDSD
Inconclusive results are not listed.
Recorded measurements of activation, one per entry

{"columns": ["compound", "activation / %"],
 "data": [
  ["O=C1c2ccccc2C(=O)C1C(=O)C(c1ccccc1)c1ccccc1", 24.3],
  ["C=CC(C)(C)c1[nH]c2cccc3c2c1C[C@@H]1[C@@H]3[C@@H](OC(C)=O)[C@H](C)CN1C", 1.53],
  ["C[C@H](N)[C@H](O)c1ccc(O)c(O)c1", -36.8],
  ["CC(C)C1(OO)C=C2C(=O)CC3C(C)(C(=O)O)CCCC3(C)C2CC1 (stereo not drawn)", 11.5],
  ["O=C(CCCCl)c1ccc(F)cc1", -10.9],
  ["N#CC(OC1OC(COC2OC(CO)C(O)C(O)C2O)C(O)C(O)C1O)c1ccccc1 (stereo not drawn)", 8.4],
  ["CC(C)(O)C(=O)Nc1ccc([N+](=O)[O-])c(C(F)(F)F)c1", -14.4],
  ["CO[C@@H]1[C@@H](O)[C@@H](O[C@H]2CC[C@]3(C=O)C4CC[C@]5(C)[C@@H](C6=CC(=O)OC6)CC[C@]5(O)[C@@H]4CC[C@H]3C2)O[C@@H](C)[C@H]1O[C@@H]1O[C@H](CO[C@@H]2O[C@H](CO)[C@@H](O)[C@H](O)[C@H]2O)[C@@H](O)[C@H](O)[C@H]1O (stereo partly drawn)", -9.92]
]}

====

Recorded measurements of activation, one per entry
target: Cellular tumor antigen p53 (Homo sapiens); test: Primary qHTS for small molecule compounds that upregulate eGFP-tagged delta133p53alpha (in N-terminal) cells. (AID 2060322); conditions: NCI-H358 eGFP-delta133p53alpha fluorescence, 24 h; stronger effect = higher value;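 note: cells pre-induced with doxycycline then dosed without doxycycline; series mostly up to about 56 µM; 0% = DMSO vehicle and 100% = reference activator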
Results filed as inconclusive are left out.

{"columns": ["molecule", "system.under.test", "activation / %"],
 "data": [
  ["CC1COC2(c3ccccc3Cl)c3cc(Cl)ccc3NC(=O)CN12 (stereo unspecified)", "Cellular tumor antigen p53 (Homo sapiens)", 28.5],
  ["Cc1cccc(NC(=O)c2ccc(C(F)(F)F)cc2C(=O)O)n1", "Cellular tumor antigen p53 (Homo sapiens)", 1],
  ["Cc1c(N[C@@H](c2nnc(-c3ccc(C#N)cc3)o2)[C@H](C)O)ccc(C#N)c1Cl", "Cellular tumor antigen p53 (Homo sapiens)", 21],
  ["CC(=O)O[C@@H]1[C@H]2CC[C@H]3[C@@](C)(O)[C@@H]4C[C@H](O)C(C)(C)[C@@]4(O)[C@H](O)C[C@@]13C[C@@]2(C)O", "Cellular tumor antigen p53 (Homo sapiens)", 6.87],
  ["COc1cc2c(cc1O)C1(C)CCC(O)C(C)(C)C1CC2=O (stereo unspecified)", "Cellular tumor antigen p53 (Homo sapiens)", -4.58],
  ["C1CCC(NC2CCCCC2)CC1", "Cellular tumor antigen p53 (Homo sapiens)", 7.53],
  ["CN1CCC(c2c[nH]c3ccc(O)cc23)CC1", "Cellular tumor antigen p53 (Homo sapiens)", -20.9],
  ["CC(C)(C)[C@]1(O)C[C@@H]2OC(=O)C[C@@]23C(=O)O[C@@H]2OC(=O)[C@H](O)C213 (stereo partly specified)", "Cellular tumor antigen p53 (Homo sapiens)", 7.05],
  ["CCCN(CCC)CCc1c[nH]c2ccccc12", "Cellular tumor antigen p53 (Homo sapiens)", 22],
  ["C=CCN1CCC2(C)c3cc(O)ccc3C[C@H]1[C@H]2C", "Cellular tumor antigen p53 (Homo sapiens)", -5],
  ["NCCc1c[nH]c2ccc(O)cc12", "Cellular tumor antigen p53 (Homo sapiens)", -1.52]
]}
